Overview of recorded melting point for various compounds
metric name: melting point

- O=C(NCCC1CCN(c2ccc3cc(F)ccc3n2)CC1)OCc1cncs1: 100 to 102 °C
- O=C(NCCC1CCN(c2cccc(-c3ccc(F)cc3)n2)CC1)OC(c1nccs1)C(F)(F)F (racemic): 121 to 123 °C
- O=C(NCCC1CCN(c2ccc(-c3ccc(F)cc3)cn2)CC1)OCc1cncs1: 100 to 102 °C
- O=C(NCCC1CCN(c2ccc3cc(Cl)ccc3n2)CC1)OC(c1nccs1)C(F)(F)F (racemic): 114 to 116 °C
- O=C(NCCC1CCN(c2ccc(-c3ccc(F)cc3)cn2)CC1)OCc1cscn1: 130 to 132 °C
- O=C(NCCC1CCN(c2ccc(-c3ccc(F)cc3)cn2)CC1)OCc1nccs1: 131 to 133 °C
- CCOc1ccc(-c2ccc(N3CCC(CCNC(=O)OCc4nccs4)CC3)nc2)cc1: 157 to 159 °C
